- TEST SUMMARY: NCI Yeast Anticancer Drug Screen. Data for the rad50 strain (AID 155);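 also: 0% = growth of vehicle-only cultures of the same strain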
- ASSAY CONTEXT: S. cerevisiae rad50 strain growth inhibition; at 5.0 µM (retest, dose inferred, filed as 0.5)
This is part of a sample that, as a whole, favours compounds with a hit. Of some 79,000 tested, about 15% had one in any assay. Calls of active or inactive are those of the source. Rule as the data show it: active = growth inhibition above about 70%; inactive = the rest. *1 amine or outer side, *2 acyl side, *3 side chain or, on linkers, in order; H or OH if unused. Where a SMILES comes first, the peptide text is derived from it. Bridges are numbered along the chain shown (N, C = ends). Roman numbers before positions name the chains, in order. [ ]: non-standard residue; d: D form. Actinocin(9to1) = Cc1c2oc3c(C)ccc(C(=O)[*:1])c3nc-2c(C(=O)[*:2])c(N)c1=O; NMeV = CN[CH](C(=O)O)C(C)C; Pip = O=C(O)[CH]1CCCCN1; Sar = CNCC(=O)O
Outcomes: active, inactive

MOLECULE	CLASS NAME
O=C1C(Br)=C(Br)C(=O)c2ccccc21	active
Oc1ccc2c(c1)Cc1ccccc1-2	inactive
CCOC(=O)C(Cl)C(Cl)C(=O)OCC (centres undefined)	inactive
CC[n+]1ccc(Nc2ccc(NC(=O)c3ccc(C(=O)Nc4ccc(Nc5cc[n+](CC)c(N)n5)cc4)cc3)cc2)nc1N	inactive
Cc1c2oc3c(C)ccc(C(=O)NC4C(=O)NC(C(C)C)C(=O)N5CCCCC5C(=O)N(C)CC(=O)N(C)C(C(C)C)C(=O)OC4C)c3nc-2c(C(=O)NC2C(=O)NC(C(C)C)C(=O)N3CCCCC3C(=O)N(C)CC(=O)N(C)C(C(C)C)C(=O)OC2C)c(N)c1=O (centres undefined) (I: TV[Pip][Sar][NMeV] / II: TV[Pip][Sar][NMeV]; ester I:1-I:C, II:1-II:C; linker I:N-II:N via Actinocin(9to1); configuration not given here)	inactive
CCOC1=C(c2ccccc2)Sc2ccc(C)cc2C1c1ccc(C)cc1 (centres undefined)	inactive
COC(=O)CSc1nc2ccccc2[nH]1	inactive
Nc1ncnc2nn(C3OC(CO)C(O)C3O)nc12 (centres undefined)	inactive
CC(=O)OCCCCCCCCCCCCCCO	inactive
COc1ccc(-c2cc(C(=O)O)c3cccc(C(F)(F)F)c3n2)cc1	inactive
Cc1ccc(S(=O)(=O)S/C(=N\c2ccccn2)Nc2ccccn2)cc1	active
CC1(C)CCN(CCOC(=O)C(c2ccccc2)C2C=CCCC2)C1 (centres undefined)	inactive
CNC(=O)OCc1c(-c2ccccc2)c(-c2ccccc2)n(-c2ccc(OC)cc2)c1COC(=O)NC	inactive
CC1N(O)C(c2ccccc2)C(c2ccccc2)=[N+]1[O-] (centres undefined)	inactive
c1ccc2c(c1)N=c1ccccc1=P21c2ccccc2Nc2ccccc21	active
COC1OC(=O)CC1C1CC=C2C3CCC4CC(O)CCC4(C)C3CCC21C (centres undefined)	inactive
O=[N+]([O-])c1ccc(N2CCCC(n3cccc3)C2)c([N+](=O)[O-])c1 (centres undefined)	inactive
O=c1c(-c2ccccc2)c1-c1ccccc1	inactive
O=[N+]([O-])c1ccc2nc(-c3ccccn3)[nH]c2c1	inactive

----------
- TEST SUMMARY: NCI Yeast Anticancer Drug Screen. Data for the mec2-1 strain (AID 157)
- ASSAY CONTEXT: S. cerevisiae mec2-1 strain, at 50.0 µM, active compounds read high
Compounds without any hit were thinned out: in the full panel of roughly 79,000, 15% have a hit.
Entry flag: Satisfied if growth inhibition reaches 90%; Not satisfied if it does not.

COMPOUND	CLASS NAME
COc1ccc2c(c1)sc(/C=C/c1ccc(O)c3ncccc13)[n+]2C	Satisfied
O=C1/C(=C/c2cccc(O)c2)SC(=S)N1/C=C\c1nc2ccccc2[nH]c1=O	Not satisfied
Cc1ccc2ccc3ccc(C)nc3c2n1	Satisfied
CCN(CC)CCOc1cccc2c1C(=O)c1c(O)cccc1C2=O	Not satisfied
COc1cc2c(cc1O)CCN[C@@]21CS[C@H]2c3c(OC(C)=O)c(C)c4c(c3C(COC1=O)N1C2C2c3c(cc(C)c(OC)c3O)CC([C@@H]1O)N2C)OCO4 (some centres not stated)	Satisfied
Cn1c(=O)c2c(nc(CCCCCCCc3nc4c(c(=O)n(C)c(=O)n4C)n3C)n2C)n(C)c1=O	Not satisfied
O=C1OC(=O)c2ccc(S)c3cccc1c23	Not satisfied
OC(C1CCCCN1)C1CC(c2ccccc2)Nc2c(Cl)cc(Cl)cc21 (configuration not stated)	Satisfied
c1ccc2c(c1)Cc1nc3ccccc3nc1-2	Satisfied
COc1ccc(OC)c(C[P+](c2ccccc2)(c2ccccc2)c2ccccc2)c1	Satisfied
C[C@]12CC[C@@H]3c4ccc(O)cc4CC[C@H]3[C@@H]1CC[C@@H]2NCCCCCCO	Not satisfied
COc1cccc(/C=N/NC(=O)c2c(-c3ccccc3)noc2C)c1O	Not satisfied
CC(=O)Oc1c(C)cc(C)cc1Cc1cc(C(C)=O)cc(Cc2cc(C)cc(C)c2OC(C)=O)c1OC(C)=O	Satisfied
C[C@H]1CC[C@@H]2[C@@H](C)[C@H]3[C@H](C[C@H]4[C@@H]5CC=C6C[C@@H](O)CC[C@]6(C)[C@H]5C[C@H](O)[C@]34C)N2C1	Not satisfied
C/C(=N\NC(=S)NCCCNC(=S)N/N=C(\C)c1ccccn1)c1ccccn1	Not satisfied
N/C(CC(=O)NOC(=O)c1ccccc1)=N/OC(=O)c1ccccc1	Satisfied
CC(=O)Oc1ccc(-c2ccccc2)cc1Br	Satisfied
Cn1c(=O)ccc2cc(C(=O)c3ccccc3)ccc21	Not satisfied
CS(=O)(=O)C(=Cc1ccccc1Cl)S(C)(=O)=O	Not satisfied
[N-]=[N+]=Nc1c(-c2ccccc2)c(Cl)nc2ccccc12	Not satisfied
CC(=O)Oc1ccc2cc(-c3ccccc3OC(C)=O)c(=O)oc2c1	Not satisfied
CCOC(=O)Oc1ccc(C)cc1[N+](=O)[O-]	Not satisfied
COC(=O)C(=O)C(/C=N/C(=S)NCCc1ccc(OC)c(OC)c1)=C(/O)c1ccc([N+](=O)[O-])cc1	Not satisfied
C/C(=N\NC(=S)N1CCN(C2CCCCC2)CC1)c1ccccn1	Satisfied
CCCCCCCCCCCCN(CCO)CCO	Not satisfied
CCN(CC)C1Oc2cc3c(cc2C(c2ccc(OC)cc2)C1C)OCO3 (configuration not stated)	Not satisfied
Clc1ccccc1CN1COc2c(cc(Cl)c3cccnc23)C1	Satisfied
CCCCCCCCCCCCCCCCCC1=NCCN1	Satisfied
C=CCc1ccc(OC(=O)CCl)c(OC)c1	Not satisfied
O=c1[nH]c(Cc2ccccc2)nc2c1sc1nc3ccccc3n12	Not satisfied
Nc1ccc(N=Nc2ccccc2)c2ccccc12	Satisfied
CCOC(=O)c1ccc(C(C)C)cc1	Not satisfied
CCCCCCCCCC(C)CC(=O)NCCCN(C)CCCCN(C)C (configuration not stated) (tested in a mixture with another compound)	Not satisfied
CCCCCC[C@@H](O)C/C=C\CCCCCCCC(=O)OCCCC	Not satisfied
CCOC(=O)N1C2C=CC(=O)C(C=C2)N1C(=O)OCC (configuration not stated)	Not satisfied
O=C1C=C(c2ccccc2)OC(c2ccccc2)C1 (configuration not stated)	Not satisfied

----------
- TEST SUMMARY: NCI Yeast Anticancer Drug Screen. Data for the mlh1 rad18 strain (AID 175)
- ASSAY CONTEXT: S. cerevisiae mlh1 rad18 strain growth inhibition; at 50.0 µM (retest, dose inferred, filed as 5.0); active compounds read high
About 79,000 compounds went through this panel and 15% of them were active in at least one assay; those are over-represented in the sample as a whole.
Here the recorded growth inhibition is given for each entry.
QUANTITY: growth inhibition (%)

>>> print(df.to_string())
                                    compound  readout_number
 0           O=c1onc(-c2ccc(Cl)cc2)c2ccccc12               4
 1  CNC(=O)c1cc(NC(=O)c2ccc(C(=O)Nc3cc(C(=O)NC)cc(C4=NCCN4)c3)cc2)cc(C2=NCCN2)c1             -19
 2  CC12CCC(=O)C=C1CCC1C2C(O)CC2(C)C(c3csc(N)n3)CCC12 (stereo unspecified)              96
 3  CCCCOC(=O)c1nc(N(CC2CCCCC2)C(=O)NC)sc1NC(=O)NC              96
 4   COC(=O)/C=C(\C)Nc1ccc(Cc2ccc(Br)cc2)cc1              99
 5            Nc1ccc(C(=O)/C=C/c2ccccc2O)cc1              -1
 6                COc1ccc(Nc2nc3ccccc3s2)cc1              15
 7  CC(CCC(=O)O)(c1cc(Br)c(O)c(Br)c1)c1cc(Br)c(O)c(Br)c1              87
 8                            CSC(SC)C(SC)SC              99
 9  Cc1c2cc[n+](C)cc2c(C)c2c1[nH]c1ccc(Cl)cc12              99
10  c1ccc(C2CC(c3ccc4ccccc4c3)=Nc3ccccc3S2)cc1 (stereo unspecified)              76
